# system-name: T1, 4H883-bA
# T1 chain: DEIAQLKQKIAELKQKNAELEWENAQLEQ
# test-description: two-hybrid library CCNG1;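 note: natural log of median RNA to DNA barcode read ratio; higher means stronger binding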
readout: interaction score

Lab note: each binder below needs its interaction score filled in.
1. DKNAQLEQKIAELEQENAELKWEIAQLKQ [4H3354-bA]
2. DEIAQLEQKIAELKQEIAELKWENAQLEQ [4H331-bA]
3. DKNAQLKQEIAELEQENAELEWKIAQLKQ [4H3606-bA]
4. DEIAQLKQEIAELKQENAELKWKNAQLEQ [4H607-bA]
5. DEIAQLEQEIAELKQEIAELEWKNAQLKQ [4H72-bA]

Given back:
1. -0.0506
2. -0.483
3. 0.708
4. -1.28
5. 1.05

Lab note: each binder below needs its interaction score filled in.
1. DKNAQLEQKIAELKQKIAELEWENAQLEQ [4H3427-bA]
2. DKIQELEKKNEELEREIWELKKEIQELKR [4H2442-bH]
3. DEIAQLEQKNAELKQEIAELEWKIAQLKQ [4H454-bA]

Given back:
-0.625
-2.1
-0.0808

Lab note: each binder below needs its interaction score filled in.
1. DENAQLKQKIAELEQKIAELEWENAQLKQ [4H1828-bA]
2. DKIAQLKQENAELEQEIAELKWEIAQLEQ [4H2697-bA]

Given back:
[-0.928, -1.53]
